Experiment: Toxicity against macrophages incubated for 48 hrs by resazurin dye reduction assay
Assay type: cell-based, Macrophage
In this section, each of the compounds is paired with its reported CC50 at 48 h.
experimental endpoint: CC50 at 48 h (µM)

> print(dat)
                                   compound  experimental.endpoint  op  recorded.measurement
1  CCCCCCn1cc(COc2ccc(C(=O)/C=C/c3c(F)cccc3Cl)c(O)c2)nn1           CC50 at 48 h   >                   100
2  CC(C)c1ccc(-c2cc(-c3ccc(OCc4cn(Cc5ccccc5)nn4)cc3O)nc(N)n2)cc1           CC50 at 48 h   >                   100
3  CCCCCCn1cc(COc2ccc(C(=O)/C=C/c3ccc(Br)cc3)c(O)c2)nn1           CC50 at 48 h   >                   100
4  Nc1nc(-c2ccc(OCc3cn(Cc4ccc(Br)cc4)nn3)cc2O)cc(-c2cccc3ccccc23)n1           CC50 at 48 h   >                   100
5  CCCCCCn1cc(COc2ccc3c(c2)OC(c2ccc(OC)cc2)CC3=O)nn1 (centres undefined)           CC50 at 48 h   =                  57.5
6  COc1ccc(-c2cc(-c3ccc(OCc4cn(Cc5ccccc5)nn4)cc3O)nc(N)n2)cc1           CC50 at 48 h   =                  42.7
7  Nc1nc(-c2ccccc2)cc(-c2ccc(OCc3cn(Cc4ccccc4)nn3)cc2O)n1           CC50 at 48 h   =                  76.5
8  Nc1nc(-c2ccccc2)cc(-c2ccc(OCc3cn(Cc4ccc(Br)cc4)nn3)cc2O)n1           CC50 at 48 h   >                   100
9  CCCCCCn1cc(COc2ccc(-c3cc(-c4ccc(Cl)cc4)nc(N)n3)c(O)c2)nn1           CC50 at 48 h   =                  30.3
